The values you see were collected from PubChem BioAssay (NCI).

# Test system: MDA-N
# PROTOCOL DESCRIPTION: NCI tumour cell line growth inhibition, 48 h
Below is a list of entries, each paired with its recorded TGI value.
MEASURE NAME: TGI (µM)

• O=C(C=P(c1ccccc1)(c1ccccc1)c1ccccc1)c1cccc(-c2cccc([N+](=O)[O-])c2)c1 = 6.95
• C/C=C1/CN2CCc3c([nH]c4ccccc34)[C@@H]2C[C@@H]1Cc1[nH]ccc2c1[nH]c1cc(=O)ccc12 = 4.51

* * *

# Test system: SR leukemia
# PROTOCOL DESCRIPTION: NCI tumour cell line growth inhibition, 48 h
This section presents compounds with their documented TGI values.
MEASURE NAME: TGI

* Cn1cc(C2=C(c3cccc(N)c3)C(=O)NC2=O)c2ccccc21 | 24.8 µM
* O=S(=O)(N/N=C/c1ccc(Cl)c(Cl)c1)c1ccccc1 | > 100 µM
* CCOC(=O)c1c(-c2ccccc2)oc(-c2ccccc2)c1C(=O)OCC | > 100 µM

* * *

# Test system: OVCAR-5 ovarian
# PROTOCOL DESCRIPTION: NCI tumour cell line growth inhibition, 48 h
MEASURE NAME: TGI

• c1ccc2c(c1)sc1c3cnccc3ccc21 = > 100 µM
• CCOc1ccccc1NC(=O)c1cc2ccccc2cc1O = 27.7 µM
• CN(C)c1ccc(/C=C(\NC(=O)c2ccccc2)C(=O)NCC(=O)O)cc1 = > 100 µM
• Cn1c(-c2cccs2)cc(-c2ccccc2)c1-c1cccs1 = > 100 µM
• O=C1CCCC2C(O)CCC[C@H]12 (stereo not given in full) = > 100 µM
• O=C(CCC(=O)Nc1cccc(Cl)c1)CC(=O)c1ccc(F)cc1 = > 100 µM
• N#Cc1c2c(c(Nc3cccc(C(F)(F)F)c3)n3c1nc1ccccc13)CCC2 = > 100 µM
• OC1(c2ccc(Cl)cc2)c2c(ccc3c2OCO3)C2=NCCN21 (stereo not given) = > 100 µM
• c1ccc2c(c1)Nc1ccccc1[P+]21c2ccccc2Nc2ccccc21 = 2.04 µM
• COC(c1cccc(C(O)(C(F)(F)F)C(F)(F)F)c1)(C(F)(F)F)C(F)(F)F = 32.4 µM
• C1=Nc2ccc(cc2)N=Cc2ccc(cc2)OCc2cccc(n2)COc2ccc1cc2 = > 100 µM
• O=C1N(c2ccccc2)C2(c3ccccc3)CC3CCCC13S2 (stereo not given) = > 100 µM
• Cc1cc(NS(=O)(=O)c2ccc(NC(=O)c3ccc4[nH]c5ccccc5c(=O)c4c3)cc2)no1 = > 100 µM
• CCCCOc1ccc(NC(=O)n2nc(N)c3ccccc32)cc1 = 68.4 µM
• O=S(=O)(Cc1ccc(Cl)cc1Cl)c1ccc(Cl)cc1 = > 100 µM

* * *

Here the recorded TGI is given for each entry.
# Test system: HT29 colon
# PROTOCOL DESCRIPTION: NCI tumour cell line growth inhibition, 48 h
MEASURE NAME: TGI

- c1ccc(C2CC(c3cccc(Nc4ccncc4)c3)=NN2c2ccccc2)cc1 (centres undefined): 3.49 µM
- CCOC(=O)C1C(c2ccc(OC)cc2)c2c([nH]n(-c3ccccc3)c2=O)CC1(O)OCC (centres undefined): > 100 µM
- Cn1ccnc1C(=O)/C=C/c1ccc(C(=O)Nc2ccc(S(F)(F)(F)(F)F)cc2)cc1: > 14.3 µM
- CCOCN1COCN=C1NC#N: > 100 µM
- C/C(=C\c1ccccc1)C(=O)NCc1ccc(C(=O)NCCC(C)C)cc1: > 100 µM
- NC(=O)c1cccc(C2OC(COP(=O)(O)O)C(O)C2O)c1 (centres undefined): > 50 µM
- Cc1ccc(NP(=O)(Oc2ccccc2)N(CCCl)CCCl)cc1 (centres undefined): > 100 µM
- COC(=O)[C@H](Cc1ccccc1)NC(=O)N1CCCN(C(=O)N[C@@H](Cc2ccccc2)C(=O)OC)CCCN(C(=O)N[C@@H](Cc2ccccc2)C(=O)OC)CCC1: 33.5 µM
- Cc1cccc2cc3c(ccc4ccccc43)c[n+]12: > 100 µM

* * *

# Test system: CAKI-1 renal
# PROTOCOL DESCRIPTION: NCI tumour cell line growth inhibition, 48 h
MEASURE NAME: TGI

- COC(=O)C(C)(C)OCc1ccc(C2NC(=O)N(c3cccc(Cl)c3)C(=O)N2c2cccc(Cl)c2)cc1 (stereo not given): > 100 µM
- CC(C)(C)OC(=O)CC(NC(=O)OC(C)(C)C)C(=O)N[C@@H]1CCCC[C@H]1C(=O)OCc1ccccc1 (stereo not given in full): > 100 µM
- N#CCCN(c1ccc(/C=C2\N=C(Cc3ccccc3)OC2=O)cc1)S(=O)(=O)c1ccccc1: > 100 µM
- O=C(CCC(=O)Nc1cccc(Cl)c1)CC(=O)c1ccc(F)cc1: > 100 µM
- COc1cccc(C2C3=C(COC3=O)N(CCO)c3cc(OC)ccc32)c1 (stereo not given): > 100 µM

* * *

# Tested on: CAKI-1 renal
# PROTOCOL DESCRIPTION: NCI tumour cell line growth inhibition, 48 h
MEASURE NAME: TGI

• CCC1C(=O)OCc2c1cc1n(c2=O)Cc2cc3ccccc3nc2-1 (stereo not drawn) = 16.3 µM
• CN(C)c1ccc(/C=C(\NC(=O)c2ccccc2)C(=O)NCC(=O)O)cc1 = > 100 µM
• O=c1cc(-c2ccccc2)oc2cc(O)c(O)c(O)c12 = 19 µM
• OC1(c2ccc(Cl)cc2)c2c(ccc3c2OCO3)C2=NCCN21 (stereo not drawn) = > 100 µM
• C=CCOC(=O)Cn1cc(C)c(=O)[nH]c1=O = > 100 µM
• CS(=O)(=O)OCC1OC(n2ccc(NC(=O)c3ccccc3)nc2=O)CC1OS(C)(=O)=O (stereo not drawn) = > 100 µM
• CC1=NNC(=O)C1C1CC(c2c[nH]c3ccccc23)=NNC1=S (stereo not drawn) = > 100 µM
• CCOC(=O)/C(=N\OC)C(O)C(F)(F)F (stereo not drawn) = > 100 µM
• CC(C)[C@H]1CC[C@H]2[C@@H](CC[C@H]3[C@](C)(CN)CCC[C@]23C)C1 = 4.2 µM
• O=C1C2C(C(=O)[N]1[Hg][c]1cccs1)C1(Cl)C(Cl)=C(Cl)C2(Cl)C1(Cl)Cl (stereo not drawn) = 2.64 µM
• Clc1cc2c(cc1Cl)Oc1cc(Cl)c(Cl)cc1O2 = > 0.625 µM
• COc1ccc2nc3cc(Cl)ccc3c(NCCC[N+](C)(C)CCCCCCCCCCCCCCCC[N+](C)(C)CCCNc3c4ccc(Cl)cc4nc4ccc(OC)cc34)c2c1 = > 100 µM
• Nc1nc(N)c(Cn2ccnc2)c(=O)[nH]1 = > 100 µM
• CC1(C)/C(=N\O)C2(C#N)CCC1C2 (stereo not drawn) = > 100 µM
• CN(C)CCN(C)CC1COC(C)(C)O1 (stereo not drawn) = > 100 µM
• Clc1ccc(/C=C/c2cc(N3CCOCC3)c3cc(Cl)c(Cl)cc3n2)cc1 = > 100 µM
• Cc1oc2c(C)c3oc(=O)cc(C)c3cc2c1CNC(=O)[C@@H]1OCCOCCOCCOCCOCCOC1C(=O)O (stereo partly drawn) = > 100 µM
• CSc1cccc(-n2c3nc(=O)n(C)c(=O)c-3nc3ccccc32)c1 = 19.7 µM
• CC(=O)N1CN2C(=O)CCC2c2ccccc21 (stereo not drawn) = > 100 µM
• CSc1nc(NC2OCC(OC(C)=O)C(OC(C)=O)C2OC(C)=O)c(N=C(C)C(C)=O)c(=O)[nH]1 (stereo not drawn) = > 100 µM
• CC(C)(C)n1c(=O)[nH]n(C2NN=Cc3cccc4cccc2c34)c1=O (stereo not drawn) = > 100 µM
• C/C=C/C1=C(Cl)C(=O)[C@@H](Cl)[C@@]1(O)C(=O)OC = 8.4 µM
• CCC[CH2][Sn]([CH2]CCC)([O]C(=O)c1cc(F)ccc1F)[O][Sn]([CH2]CCC)([CH2]CCC)[O]C(=O)c1cc(F)ccc1F = 0.621 µM
• CC(C)(O)C#Cc1ccc(/C=C/C(=O)c2ccccc2)s1 = 30.6 µM
• Nc1ccccc1-c1ccc([N+](=O)[O-])cc1 = > 100 µM
• CC(=O)N1c2ccccc2C2=CC3C4C(=O)N(c5ccccc5)C(=O)C4C21C1C(=O)N(c2ccccc2)C(=O)C31 (stereo not drawn) = > 100 µM
• O=C1NC(=O)C(CC(C(=O)C(=O)Nc2ccccc2Cl)C(=O)c2ccc3ccccc3c2)C(=O)N1 (stereo not drawn) = > 100 µM
• O=C(Nc1ccccc1)c1nn(-c2cc(S(=O)(=O)O)c([N+](=O)[O-])cc2Cl)[n+](-c2cc(S(=O)(=O)[O-])c([N+](=O)[O-])cc2Cl)n1 = > 100 µM
• C#CCNC(=O)NCCCC(NC(C)=O)C(=O)NCc1ccccc1 (stereo not drawn) = > 100 µM
• O=S(=O)(N/N=C/c1ccc(Cl)c(Cl)c1)c1ccccc1 = > 100 µM
• N#Cc1c2c(c(Nc3cccc(C(F)(F)F)c3)n3c1nc1ccccc13)CCC2 = > 100 µM
• O=C(Nc1nc(C23CC4CC(CC(C4)C2)C3)cs1)c1c(O)c2ccccc2[nH]c1=O = > 100 µM
• CCCCCCCC(=O)NCC(O)CNC(=O)CCCCCCC = > 100 µM
